Tested on: DU-145 prostate
Experiment: NCI tumour cell line growth inhibition, 48 h
Give TGI for every item shown.

What does the data say about its TGI? Entry: CC1(C)N=C(/C(Cl)=[N+](/[O-])C(=O)c2ccc(F)cc2)C(C)(C)N1O
78.7 µM

Fill in: TGI of O=C(Nc1ccccc1OC(F)(F)F)Nc1n[nH]c2ccccc12 is ___
> 100 µM

Tell me the measured TGI of C=C(Br)C(C)(Cl)CCC(Br)C(C)(C)Cl (stereo not drawn) , please.
> 100 µM

====

Test system: KM12 colon
Experiment: NCI tumour cell line growth inhibition, 48 h
ATTRIBUTE MEASURED: TGI

Please tell me: TGI of O=C(O)c1cccc2c1/C(=N/Nc1ccccc1)CC2 , system KM12 colon?
> 100 µM

Could you share what TGI was measured for CC1(c2ccc(F)cc2)C(C#N)C(=O)NC(=O)C1C#N (centres undefined) , tested on KM12 colon?
> 100 µM

Recall the recorded TGI for CSc1nc2c(c(=O)[nH]1)N=C1c3ccccc3C(=O)C1C(c1ccccc1)N2 (centres undefined) with KM12 colon and state it.
37.5 µM

Hi! What's the reported TGI for CC12CCC(O)CC1CCC1C2CCC2(C)C(C3=CC(=O)OC3)CCC12O (centres undefined) on KM12 colon?
> 43.3 µM

====

System: SK-OV-3 ovarian
Assay: NCI tumour cell line growth inhibition, 48 h; in the data active means GI50 below about 0.43 µM; inactive means the rest
Where a SMILES comes first, the peptide text is derived from it. [ ]: non-standard residue; d: D form. The star is where a group is joined. ξ: configuration not given here. X6 = FC(F)(F)c1cc(NC(=S)*)cc(C(F)(F)F)c1; ξF = NC(Cc1ccccc1)C(=O)O
Write down one outcome, taken from true (active), false (inactive)

Assay outcome for CC1(C)CCc2c(c3c(c4c(=O)c(O)c(-c5ccc(O)cc5)oc24)OC(C)(C)CC3)O1 : what was it?
false

Would you mind telling me which call this test gave OCc1ccc(N2CCC2c2ccc(F)cc2)cc1Cl (stereo not given) ?
false

What was the test verdict on Cn1cc(C2=C(c3cn(C)c4ncccc34)C(=O)NC2=O)c2ccccc21 ?
false

# outcome recorded in this test, key = CCC(CO)Nc1nc2ccc(Cl)cc2c2ccccc12 (stereo not given)
false

For O=C1C(Cl)=C(Nc2cccc(Cl)c2)C(=O)N1Cc1ccc(Cl)cc1Cl , which call appears in the assay record?
false

Returns: the outcome recorded for COc1cc(/C=N/NC(=O)c2ccc(C(F)(F)F)nc2Nc2ccc(Cl)cc2C)ccc1O in this assay.
false

Hey, what did the test say about CC1=C(C(=O)Nc2ccc(Cl)c(Cl)c2)C(c2cccc(Oc3ccccc3)c2)NC(=S)N1 (stereo not given) ?
false

// outcome(item) with item = CC(C)CCC[C@@H](C)[C@H]1CC[C@H]2[C@@H]3CC=C4C[C@@H](C(C(=O)O)C(=O)O)CC[C@]4(C)[C@H]3CC[C@]12C
true

What did this assay record as the result for COc1ccc(C(=O)Cn2c(C(=O)c3ccccc3)nc(-c3ccc(OC)cc3)c2-c2ccc(OC)cc2)cc1 ?
false

Which result was noted for this compound in the test: COC(=O)[C@@H](NC(=O)CNC(=O)[C@H]1CCCN1C(=O)C(Cc1ccccc1)NC(=S)Nc1cc(C(F)(F)F)cc(C(F)(F)F)c1)C(C)C (stereo not given in full) (X6-[ξF][dP]GV-OMe)
false

====

Test system: IGROV1 ovarian
Test: NCI tumour cell line growth inhibition, 48 h
ATTRIBUTE MEASURED: TGI

So what's the measured TGI for this one? CC(=O)NC1=C(NCCC(C)C)C(=O)c2ccccc2C1=O
> 50 µM

Tell me the measured TGI of Clc1ccc2c(NCCCCNc3nc(N4CCCCC4)nc4ccccc34)ccnc2c1 , please.
6.59 µM

Would you mind telling me what TGI value was observed for O=[N+]([O-])C(=C1NCCN1)/C(Cl)=C(\Cl)Br ?
> 100 µM

Which TGI reading was recorded for the compound CCCCCN(CCCCC)CC(O)c1cc(C)c2ccc3cc(C(C)C)ccc3c2c1 (stereo unspecified) ?
3.47 µM

Please give the measured TGI for this compound: O=C(O)c1cccc2c1/C(=N/Nc1ccccc1)CC2
> 100 µM

Please look up its TGI: N=c1n(C(=O)N2CCCC2)c2cc(Cl)ccc2n1C1=NCCN1
> 100 µM

====

Tested on: HT29 colon
Test: NCI tumour cell line growth inhibition, 48 h
For each entry below, report its TGI value.

Using the record for C=C1c2nc3ccccc3n2C=C(c2ccccc2)N1c1ccc([N+](=O)[O-])cc1 , report its TGI.
> 61.1 µM

Look at this molecule and give its reported TGI. N#CN=C(N(Cc1ccccc1)Cc1ccccc1)N(Cc1ccccc1)Cc1ccccc1
> 100 µM

# input molecule: CC/C=C\CCC/C=C1/C(=O)C=C[C@@H]1C/C=C\CCCC(=O)OC ; wanted: its TGI
3.87 µM

Returns the measured TGI for the input molecule. Input: COc1ccc(/C=C2\CCC(C)C3=C2NC(=S)NC3c2ccc(OC)c(OC)c2)cc1OC (stereo not drawn)
> 100 µM

What does the data say about its TGI? Entry: COc1cc(-c2nn(-c3ccc(NC(=O)c4ccc(Cl)c(C(F)(F)F)c4)cc3)cc2-c2ccncc2)ccc1Cl
4.25 µM

Entry under review: O=C(O)c1cccc2c1/C(=N/Nc1ccccc1)CC2 . Reported TGI?
> 100 µM

Quick check: TGI of COc1ccc2c3c1C(=O)CCCC3CO2 (stereo not drawn) ?
> 100 µM

Look at this molecule and give its reported TGI. Oc1ccc(-c2nc(-c3cccnc3)c(-c3ccc(F)cc3)[nH]2)cc1
32.5 µM

What measured TGI goes with CC(=O)NC1=C(NCCC(C)C)C(=O)c2ccccc2C1=O ?
> 50 µM

Entry N#CC1=C(N)N(c2ccccc2)C(c2ccco2)C1(C#N)C#N (stereo not drawn) has what TGI?
37.1 µM

Tell me the measured TGI of O=c1[nH]cc(N=Cc2cc(Cl)cc(Cl)c2O)c(=O)[nH]1 , please.
60.8 µM

TGI for CCC[C@@H](O)C[C@@H]1CCC[C@H](C[C@@H](O)CC)N1C ?
> 100 µM

Which measured TGI value corresponds to O=C(Nc1ccc(C2=NCCN2)cc1)c1cncc(C(=O)Nc2ccc(C3=NCCN3)cc2)c1 ?
> 100 µM

Which measured TGI value corresponds to CNS(=O)(=O)NNS(=O)(=O)c1ccc2ccccc2c1 ?
> 100 µM

Look at this molecule and give its reported TGI. Cc1cccc2c(=O)cc(-c3ccccc3)[nH]c12
> 100 µM

For the molecule O=c1[nH][nH]c(=O)n1Cc1ccccc1Cn1c(=O)[nH][nH]c1=O , what TGI is on record?
> 100 µM

I would be grateful if you could share the reported TGI for CCOC(=O)Nn1c(C)nnc1-c1ccccc1 .
> 100 µM

Please give the measured TGI for this molecule: FC(F)(F)c1cc(Cl)cnc1N/N=C(/c1ccccc1)c1ccccn1
20.5 µM

Please report the recorded TGI for CCC1(O)CC2CC(=O)OC2C1O (stereo not drawn) .
> 100 µM

If you can, please state the reported TGI value of Brc1ccc(N=c2nc3ccccn3n3nc(-c4ccccc4)cc23)cc1 .
> 100 µM

TGI lookup needed for [N-]=[N+]=Nc1cc(=O)oc2ccccc12 , thanks.
> 100 µM

What measured TGI goes with CCOC(=O)C(NC(C)=O)(Nc1ccc(F)cc1)C(F)(F)F (stereo not drawn) ?
> 100 µM

Which TGI value is on record for O=CC[C@H]1C(=O)C[C@@H]2CCC[C@@H]21 ?
> 100 µM

// lookup TGI for COC(=O)C1CCC(=O)N1C(c1ccccc1)c1ccc(OC)c(OC)c1 (stereo not drawn)
> 100 µM

Data request, read-out TGI, for CC(C)c1ccc(/C=C2/C=C(c3ccc4ccccc4c3)OC2=O)cc1
> 100 µM

Looking for the measured TGI of COC(=O)[C@H](Cc1c[nH]c2ccccc12)NP(=O)(O)OCC1C=CC(n2cc(C)c(=O)[nH]c2=O)O1 (stereo partly drawn) , can you help?
> 100 µM

# lookup: TGI of c1ccc2cc(-c3cc(-c4cc(-c5ccc6ccccc6c5)on4)no3)ccc2c1
> 100 µM

Find the recorded TGI belonging to CN1CCN([C@H]2C[C@H]3[C@@H]4CC=C5C[C@@H](O)CC[C@]5(C)[C@H]4CC[C@]3(C)C2=O)CC1 and report it.
> 100 µM

Report TGI for CC(C)CCC[C@@H](C)[C@H]1CC[C@H]2[C@@H]3CC=C4C[C@@H](C(C(=O)O)C(=O)O)CC[C@]4(C)[C@H]3CC[C@]12C please.
1.06 µM

Look up TGI: C[C@]12CC[C@H](O)CC1=CC[C@@H]1C2CC[C@]2(C)C(=O)N(N)C(=O)CC12 (stereo partly drawn)
> 100 µM

Could you share which TGI value was measured for Cn1cc(C2=C(c3cn(C)c4ncccc34)C(=O)NC2=O)c2ccccc21 ?
> 24.1 µM

// lookup TGI for Nc1ccccc1SC(C[N+](=O)[O-])c1ccc2c(c1)OCO2 (stereo not drawn)
3.81 µM

Given the molecule Cc1cc(I)cc(CN(C)CCCCN2CCCCC2)c1O , what is its reported TGI?
14.2 µM

Recorded TGI for CCOC(=O)N1CCC2(CC1)C[C@](C)(C(C)=O)C(C)O2 (stereo partly drawn) , please?
> 100 µM

So what does the record say about TGI for O=C1C(=O)N(c2ccc(Cl)cc2Cl)C(=O)C(=O)C1c1nc2ccccc2s1 ?
> 100 µM

So what does the record say about TGI for Oc1cccc2c(Cl)ccnc12 ?
33.6 µM

Please look up its TGI: CC(=O)NNc1nc(C)c(C(=O)NNC(=O)C(=O)Nc2c(Cl)cc([N+](=O)[O-])cc2Cl)s1
> 100 µM

# input molecule: CN/N=C(/Cc1occc(=O)c1O)C(=O)Nc1ccccc1C ; wanted: its TGI
> 100 µM

May I ask what TGI has been recorded for Cc1ccc(N=Nc2ccc(N(CCC#N)CCC#N)cc2C)c(Br)c1 ?
27.4 µM

Recorded TGI for COc1ccc(-c2nc3sccn3c2/C(N)=N/C(=N)N)cc1OC , please?
> 100 µM

Given the entry NC(=O)c1cccc2cn(-c3ccc([C@@H]4CCCNC4)cc3)nc12 , report its measured TGI.
32 µM

What measured TGI goes with O=CN/C=C/c1cc(O)ccc1O ?
56.5 µM

GET /values?readout=TGI&item= CC1C=C(CCCCCCCCCCCC[C@@H](O)[C@@H]2CC[C@@H]([C@@H]3CC[C@@H](C(O)CCCCCCCCCCCCC4=C[C@H](C)OC4=O)O3)O2)C(=O)O1 (stereo partly drawn)
> 100 µM
